Biological target: GalNAc(b1-4)GlcNAc(b1-2)Man(a1-3)[GalNAc(b1-4)GlcNAc(b1-2)Man(a1-6)]Man(b1-4)GlcNAc(b1-4)GlcNAc
Experiment: glycan array binding signal (z-score within array); higher = stronger binding
Conditions: glycan notation: IUPAC condensed, linker removed
This is one part of a sample in which the strongest signals are shown more often than they occur.
Assay Metric: glycan array binding signal (z-score)
Quick one: just the number, no unit, thanks!

Study these solved cases before continuing.
SP16665A-bot-344-23-344 (Bacteroides ovatus) (protein) SDNEFPDFDYQTVYFANQYGLRTIELGESEFVDNTLDNQHKMVIKAAWGGGYTNRNNVVINFKVDESLCDNLYFKDTDQPLVPMPASYYTLASDRIAIPKGQIMAGVEVQLTDDFFADEKSISENYVIPLLMTNVQGADSILQGKPVVENPVLTNAGDWSILPQNFVLYAVKYVNPWHGEYLRRGIDHATVAGTSKDIIRHEQFVENDEVVNISTKSMKDNLLTLKTKDESGKDISYTVRLSFAEDGSCTVHSGSQNVVVSGSGKFVSKGEKNSLGGKDRNAIYLDYTVNLTDNNIQLATKDTLVLRTRNVYGGKSLEVVRK	1.54
HFR-3 (Triticum aestivum) (protein) MKGLLLCALALAFAAVTTHAQLQSCPTRCGKQADGMECPNNLCCSKDGYCGLGVDYCSAGAGCQSGACYDNKICGAQANGTLCRNNHCCSSGGRCGYGREYCSNGCQGGPCWADLKCGHLDNGKLCPNNLCCSQYGYCGLGPEFCGTGCQNGACSTDKPCGNKANGAPCTNNYCCSQYGSCGLGKDYCGTGCQNGACN	0.738

Shifting focus to the binder that follows.
Fill in the blank: the reported glycan array binding signal (z-score) of CSA (Cytisus scoparius), P29257 (protein) SEELSFSFTKFKTDQKNLILQRDALITPTGKLQLTTVENGKPAAYSLGRALYSTPIHIWDKSTGDEASFATFFSFVISDAPNPSTAATDGLAFFLAPADTQPQSAGGYLGLFEKDSSYNSSNQIVAVEFDTYYNSAWDPQTNPHIGIDVNTIKSKKVSSWGFKNGNVATVLITYQPSSKSLVASLVYPSGQTSDKTSYIISANVDLKATVPEWVRIGFSATTGQTDNYIETHDILSWSFKSKLPATKN is ____.
3.25
